# measurement-target: T1, glucose-dependent insulinotropic peptide (gastric inhibitory polypeptide) receptor (GIPR), primary cAMP assay (human, UniProt P48546 22-466)
# T1 sequence (looked up): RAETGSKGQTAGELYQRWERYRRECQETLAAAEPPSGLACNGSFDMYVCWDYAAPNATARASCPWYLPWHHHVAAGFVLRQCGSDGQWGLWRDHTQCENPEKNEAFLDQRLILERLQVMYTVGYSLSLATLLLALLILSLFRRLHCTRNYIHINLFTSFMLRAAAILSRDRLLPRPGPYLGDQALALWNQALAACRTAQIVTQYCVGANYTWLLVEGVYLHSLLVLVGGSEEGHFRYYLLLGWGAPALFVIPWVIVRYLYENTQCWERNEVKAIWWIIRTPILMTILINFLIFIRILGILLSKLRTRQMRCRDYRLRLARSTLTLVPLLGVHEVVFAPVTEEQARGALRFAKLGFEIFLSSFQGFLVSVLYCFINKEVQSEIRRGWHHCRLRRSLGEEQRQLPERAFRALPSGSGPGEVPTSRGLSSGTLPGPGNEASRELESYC
# test-summary: cell-based or functional assay
Starred links: 1 amine or outer side, 2 acyl side, 3 side chain; linkers in the order of their positions; H or OH if unused. Non-standard residues stand in square brackets, D forms with d. Groups on a side chain read outwards from the residue. Primed or numbered codes have the meaning given here. No end group written: not given here. *: point of attachment. γGlu = O=C(O)[C@H](CCC(=O)[*:2])N[*:1]; Palmitoyl = CCCCCCCCCCCCCCCC(=O)*; αMeF = C[C@](N)(Cc1ccccc1)C(=O)O; Lauroyl = CCCCCCCCCCCC(=O)*; PEG2′ = not defined here; Aib = CC(C)(N)C(=O)O
Please provide measured Primary assay EC50 (cAMP), n1 for the entries that follow.
Numbers only, in nM.

binder="H[Aib]EGS[αMeF]TSDVSK([PEG2′-PEG2′-γGlu-Palmitoyl])YLEGEAAEEFIK([PEG2′-PEG2′-γGlu-Palmitoyl])WVVEGG-NH2 [SEQ ID NO: 246]" measured_number=21.4

Give me measured Primary assay EC50 (cAMP), n1, please, for this binder: H[Aib]EGTFTSDVSK([PEG2′-PEG2′-γGlu-Lauroyl])YLEGEAAEEFIK([PEG2′-PEG2′-γGlu-Lauroyl])FVVEGG-NH2 [SEQ ID NO: 238]
22.4

These data points were gathered from patent US20200079833A1.
